Molecular target: human Cat S (Homo sapiens (Human), UniProt P25774)
Sequence (P25774 115-331): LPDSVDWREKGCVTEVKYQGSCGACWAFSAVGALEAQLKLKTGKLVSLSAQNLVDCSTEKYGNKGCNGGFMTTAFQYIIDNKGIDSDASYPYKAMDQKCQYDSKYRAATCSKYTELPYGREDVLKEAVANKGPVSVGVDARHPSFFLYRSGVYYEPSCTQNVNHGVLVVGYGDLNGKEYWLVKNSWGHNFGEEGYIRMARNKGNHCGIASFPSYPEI
Test: Cathepsin enzyme inhibition assay (fluorogenic peptide substrate)
Type: biochemical
Settings: human Cat S, enzyme 1 nM, substrate Z-Val-Val-Arg-AMC, pH 6.5; read-out: CatS IC50
endpoint: log10 of IC50 (log10 of the value in µM)
Quick note: numbers are log10 of IC50, with µM as the unit.

Sample records with log10 of IC50:
Cc1[nH]c(-c2ccc(S(=O)(=O)CC(C)C)cc2)nc1CN1CCC(N2Cc3ccccc3NC2=O)CC1 0.03
O=C1Nc2ccccc2CN1C1CCN(Cc2nc(-c3ccc(C(F)(F)F)cc3)[nH]c2Cc2ccccc2)CC1 -0.65
Cc1cn(-c2ccc(C(F)(F)F)cc2)nc1CN1CCC(N2Cc3ccccc3NC2=O)CC1 -0.19
O=c1[nH]c(-c2ccc(Br)cc2)nn1C1CCN(Cc2cnc(-c3ccc(C(F)(F)F)cc3)[nH]2)CC1 0.18
CCn1c(=O)n(C2CCN(Cc3nc(-c4ccc(C(F)(F)F)cc4)[nH]c3C)CC2)c2ccc(Cl)cc21 -0.82
Cc1[nH]c(-c2ccc(C(F)(F)F)cc2)nc1CN1CCC(n2c(=O)[nH]c3ccc(N4CCOCC4)cc32)CC1 -0.55

Reported log10 of IC50 for Cc1[nH]c(-c2ccc(C(F)(F)F)cc2)nc1CN1CCC(n2c(=O)n(C)c3cc(Cl)ccc32)CC1 : what is it?
-0.71

Entry Cc1[nH]c(-c2ccc(C(F)(F)F)cc2)nc1CN1CCC(c2c[nH]c3ccncc23)CC1 has what log10 of IC50?
-0.18

Consider the compound shown here: Cn1nc(CN2CCC(N3Cc4ccccc4NC3=O)CC2)nc1-c1ccc(C(F)(F)F)cc1 What is its recorded log10 of IC50?
-0.35

// log10 of IC50 lookup, key: COCCc1[nH]c(-c2ccc(C(F)(F)F)cc2)nc1CN1CCC(N2Cc3ccccc3NC2=O)CC1
-0.46

Data request, read-out log10 of IC50, for COCCn1c(-c2ccc(C(F)(F)F)cc2)nc(CN2CCC(N3Cc4ccccc4NC3=O)CC2)c1C
-0.50

Name the reported log10 of IC50 value associated with the compound COCCn1c(=O)n(C2CCN(Cc3nc(-c4ccc(C(F)(F)F)cc4)[nH]c3C)CC2)c2ccc(Cl)cc21
-0.66

Given the compound COC(=O)Cn1c(=O)n(C2CCN(Cc3nc(-c4ccc(C(F)(F)F)cc4)[nH]c3C)CC2)c2ccc(Cl)cc21 , what is its reported log10 of IC50?
-0.89

May I ask what log10 of IC50 has been recorded for Cc1[nH]c(-c2ccc(C(F)(F)F)cc2)nc1CN1CCC(n2c(=O)[nH]c3ccc(N4CCCC4)cc32)CC1 ?
-0.72

# input compound: Cc1[nH]c(-c2ccc(C(F)(F)F)cc2)nc1CN1CCC(N2Cc3ccc(F)cc3NC2=O)CC1 ; wanted: its log10 of IC50
-0.74

What value of log10 of IC50 has been recorded for this entry: CC(=O)OCCn1c(=O)n(C2CCN(Cc3nc(-c4ccc(C(F)(F)F)cc4)[nH]c3C)CC2)c2ccc(Cl)cc21
-0.55

Which log10 of IC50 value belongs to Cc1[nH]c(-c2ccc(C(F)(F)F)c(Cl)c2)nc1CN1CCC(N2Cc3ccccc3NC2=O)CC1 ?
-1.11

# get_value(readout='log10 of IC50', item= Cc1[nH]c(-c2ccc(S(=O)(=O)Cc3ccccc3)cc2)nc1CN1CCC(n2c(=O)n(C)c3ccccc32)CC1 )
-0.77

Would you kindly share the measured log10 of IC50 for Cc1[nH]c(-c2ccc(C(F)(F)F)cc2Cl)nc1CN1CCC(N2Cc3ccccc3NC2=O)CC1 ?
-0.55

Could you share which log10 of IC50 value was measured for COCCN1C(=O)N(C2CCN(Cc3nc(-c4ccc(C(F)(F)F)cc4)[nH]c3C)CC2)Cc2ccccc21 ?
-0.87

Can you share its log10 of IC50? I mean this compound: CNC(=O)Cn1c(=O)n(C2CCN(Cc3nc(-c4ccc(C(F)(F)F)cc4)[nH]c3C)CC2)c2ccc(Cl)cc21
-0.48

Entry Cc1[nH]c(-c2ccc(Cl)c(Cl)c2)nc1CN1CCC(N2Cc3ccc(F)cc3NC2=O)CC1 has what log10 of IC50?
-0.35

Entry Cc1[nH]c(-c2ccc(C(F)(F)F)cc2)nc1CN1CCC(c2c[nH]c3ncccc23)CC1 has what log10 of IC50?
-0.33

Would you mind telling me what log10 of IC50 value was observed for Cc1c(CN2CCC(n3c(=O)n(C)c4ccccc43)CC2)nc(-c2ccc(C(F)(F)F)cc2)n1C ?
-0.61

Please give the measured log10 of IC50 for this compound: Cc1[nH]c(-c2ccc(C(F)(F)F)c(Cl)c2)nc1CN1CCC(N2Cc3ccc(F)cc3NC2=O)CC1
-0.96

Dear colleague, I am looking for the recorded log10 of IC50 of the following compound: O=c1[nH]ccc2c1ncn2C1CCN(Cc2cnc(-c3ccc(C(F)(F)F)cc3)[nH]2)CC1
0.64

# query: log10 of IC50 of entry Cc1[nH]c(-c2ccc(C(F)(F)F)c(F)c2)nc1CN1CCC(n2c(=O)n(C)c3ccccc32)CC1
-0.41

What measured log10 of IC50 goes with Cc1[nH]c(-c2ccc(C(F)(F)F)cc2)nc1CN1CCC(n2c(=O)n(CCS(C)(=O)=O)c3cc(Cl)ccc32)CC1 ?
-0.59

// lookup log10 of IC50 for Cc1nn(-c2ccc(C(F)(F)F)cc2)cc1CN1CCC(N2Cc3ccccc3NC2=O)CC1
0.14

Requested read-out: log10 of IC50. Entry: Cc1nc(-c2ccc(C(F)(F)F)cc2)[nH]c1CN1CCC(N2CCCCC2=O)CC1
0.51

* * *

Biological target: human Cat S (Homo sapiens (Human), UniProt P25774)
Experiment: Cathepsin enzyme inhibition assay (fluorogenic peptide substrate)
Type: biochemical
Conditions: human Cat S, enzyme 1 nM, substrate Z-Val-Val-Arg-AMC, pH 6.5; read-out: CatS IC50
pIC50: −log10 of the molar value.
If the reported pIC50 equals or exceeds 6, assign y. If not, assign n.

Determine whether this compound has pIC50 no lower than 6: Cc1[nH]c(-c2ccc(C(F)(F)F)cc2)nc1CN1CCC(n2c(=O)n(CC(N)=O)c3cc(Cl)ccc32)CC1
y

Decide: pIC50 of COCCc1[nH]c(-c2ccc(C(F)(F)F)cc2)nc1CN1CCC(c2c[nH]c3ccncc23)CC1 >= 6?
n

// inclusive: pIC50 at least 6? input: O=C1Nc2ccc(Br)cc2CN1C1CCN(Cc2cnc(-c3ccc(C(F)(F)F)cc3)[nH]2)CC1
y

Determine whether measured pIC50 meets or exceeds 6 for Cc1[nH]c(-c2ccc(C(F)(F)F)cc2)nc1CN1CCC(c2noc3cc(F)ccc23)CC1
y

* * *

Target: human Cat S (Homo sapiens (Human))
Assay: Cathepsin enzyme inhibition assay (fluorogenic peptide substrate)
Type: biochemical
Conditions: human Cat S, enzyme 1 nM, substrate Z-Val-Val-Arg-AMC, pH 6.5; read-out: CatS IC50
endpoint: pIC50
pIC50 is a log-scale quantity: -log10 of the concentration expressed in molar.

Would you please look over these solved cases?
compound	endpoint	numeric value
Cc1[nH]c(-c2ccc(C(F)(F)F)cc2)nc1CN1CCC(N2Cc3ccccc3NC2=O)CC1 [Example 28]	pIC50	6.72
Cc1[nH]c(-c2ccc(S(=O)(=O)C(F)(F)F)cc2)nc1CN1CCC(c2c[nH]c3ccncc23)CC1 [Example 77]	pIC50	6.81
Cc1[nH]c(-c2ccc(S(C)(=O)=O)cc2)nc1CN1CCC(N2Cc3ccccc3NC2=O)CC1 [Example 74]	pIC50	7.03
Cc1[nH]c(-c2ccc(S(=O)(=O)Cc3ccccc3)cc2)nc1CN1CCC(N2Cc3ccccc3NC2=O)CC1 [Example 80]	pIC50	7.00
Cc1[nH]c(-c2ccc(S(=O)(=O)CC(C)C)cc2)nc1CN1CCC(n2c(=O)n(C)c3ccccc32)CC1 [Example 79]	pIC50	5.54
Cc1[nH]c(-c2ccc(C(F)(F)F)cc2)nc1CN1CCC(n2c(=O)n(CC(=O)O)c3cc(Cl)ccc32)CC1 [Example 34]	pIC50	6.03
Cc1[nH]c(-c2ccc(C(F)(F)F)cc2)nc1CN1CCC(n2c(=O)n(CCO)c3cc(Cl)ccc32)CC1 [Example 30]	pIC50	6.64
Cc1[nH]c(-c2ccc(C(F)(F)F)c(F)c2)nc1CN1CCC(N2Cc3ccccc3NC2=O)CC1 [Example 47]	pIC50	6.84

Could you tell me which pIC50 is on file for Cc1[nH]c(-c2ccc(C(F)(F)F)cc2)nc1CN1CCC(n2cnc3ccccc32)CC1 [Example 3] ?
6.35

Consider the compound Cc1[nH]c(-c2ccc(C(F)(F)F)cc2Cl)nc1CN1CCC(n2c(=O)n(C)c3ccccc32)CC1 [Example 60] and give its measured pIC50.
6.04

Query: pIC50; subject: Cc1[nH]c(-c2ccc(C(F)(F)F)cc2)nc1CN1CCC(c2c[nH]c3ccccc23)CC1 [Example 36]
6.11
